target: GRASP, Q7Z6J2; test: holdup assay; design: key: below the threshold = too weak to quantify, mostly under pKd 3.1 to 4; settings: plain residues with an end cap or a label only (N-terminal biotin on a linker: ado-ado)
Sequence (Q7Z6J2 96-193): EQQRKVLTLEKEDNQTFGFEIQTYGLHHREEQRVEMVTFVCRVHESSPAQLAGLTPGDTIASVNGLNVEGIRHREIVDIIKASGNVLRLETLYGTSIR
Response key: label 1 means pKd >= 4; label 0 means pKd < 4.

Query :: I'd appreciate it if you could say whether HYPASPDSWV [CTNND2, Q9UQB3] has pKd at least equal to 4.
Result :: label 0

Query :: I'd appreciate it if you could say whether YAEKRMLTEV [KCNA6, P17658] has pKd at least equal to 4.
Result :: label 1

Query :: I'd appreciate it if you could say whether THREVKFTSL [CD46, P15529] has pKd at least equal to 4.
Result :: label 1

Query :: I'd appreciate it if you could say whether LLQEEWETVM [PTH1R, Q03431] has pKd at least equal to 4.
Result :: label 0

Query :: I'd appreciate it if you could say whether QRYPGNQTTC [CCL24, O00175] has pKd at least equal to 4.
Result :: label 0

Query :: I'd appreciate it if you could say whether NKSEPFLTWL [WWTR1, Q9GZV5] has pKd at least equal to 4.
Result :: label 1

Query :: I'd appreciate it if you could say whether EPAKETTTNV [SLC2A3, P11169] has pKd at least equal to 4.
Result :: label 0

Query :: I'd appreciate it if you could say whether RGKNRRQSIF [CDK18, Q07002] has pKd at least equal to 4.
Result :: label 0

Query :: I'd appreciate it if you could say whether QLKSGRDSTV [TMEM178A, Q8NBL3] has pKd at least equal to 4.
Result :: label 0

Query :: I'd appreciate it if you could say whether SSSVNVSSNL [CXCR1, P25024] has pKd at least equal to 4.
Result :: label 0
